Values from paper PMC3740800

IC50 for assorted molecules
- Tested on: lung carcinoma (A549)
- protocol-notes: cytotoxicity, resazurin reduction test, A549
- Format: cell-based
- conditions: Homo sapiens, 48 h incubation, read-out: IC50 (concentration inhibiting 50% of cell growth), A549

[[record]]
molecule = "C=C(C)C1CC=C2C(CCC23C(=C)CCC3(C)C(C)CC(=O)C=C(C)C(=O)O)C1(C)CCC(=O)O (centres unmarked) [Compound 6, abiesonic acid]"
observed_result = "22 µM"


Let us move to another entry and its IC50.
QUERY: // IC50 lookup, key: COc1cc([C@@H]2c3cc4c(cc3[C@@H](O[C@@H]3O[C@@H]5CO[C@@H](C)O[C@H]5[C@H](O)[C@H]3O)[C@H]3COC(=O)[C@H]23)OCO4)cc(OC)c1O [Etoposide]
RESULT: ≤ 1 µM
